SYSTEM TESTED: peptide-binding domain of GRP78 (GRP78-PBD, amino acids 421-639) (UniProt P11021)
Sequence (P11021 421-639 limits assumed, form in doubt): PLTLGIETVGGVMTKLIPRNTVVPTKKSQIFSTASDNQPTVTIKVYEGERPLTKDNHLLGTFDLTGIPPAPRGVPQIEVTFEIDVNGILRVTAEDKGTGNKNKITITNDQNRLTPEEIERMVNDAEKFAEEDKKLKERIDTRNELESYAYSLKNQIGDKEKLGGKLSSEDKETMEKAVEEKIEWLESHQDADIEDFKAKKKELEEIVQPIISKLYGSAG
EXPERIMENT SUMMARY: SPR (BIACORE T200), C-terminal biotin peptide on streptavidin CM5 chip, GRP78-PBD analyte
Where no end group is shown, it is not given here. The star is where a group is joined. Biotin = O=C1N[C@H]2[C@H](CS[C@H]2CCCCC(=O)*)N1
Kd values, listed per item
Express your answer in µM, writing the number without its unit.

Worked cases, Kd given:
RPFLFPFLFYGGGGSK(Biotin) : 0.66
RLLDTNRPFLFYGGGGSK(Biotin) [P13-CTP-cBiotin (P13-CTP extended at the C-terminus with GGGGSK, biotin on the C-terminal lysine)] : 2.7

Next binder, Kd to be filled in.
Recall and state the measured Kd for "MRPFLFPFLFYGGGGSK(Biotin)" . 1.2

Taken from patent US20210253636A1.
